Tested on: HOP-62 NSCLC
Test: NCI-60 one-dose screen, 48 h (100 = growth as untreated, 0 = no growth, -100 = all killed)
Conditions: 10 µM unless noted
The panel holds about 83,000 compounds, 20% with a hit somewhere; the sample as a whole holds those more often.
QUANTITY_NAME: growth (%)
Your answer is read as %, so omit the unit and give the number.

# annotated cases, reported growth shown
O=C(CSc1nc2ccc([N+](=O)[O-])cc2[nH]1)Nc1ccc([N+](=O)[O-])cc1
36.2
Cc1ccc2c(n1)C(=O)C(Br)=C(CC(C)C)C2=O
97.1
c1ccc2cc(C[n+]3ccn(CCCCCCCCCCn4cc[n+](Cc5ccc6ccccc6c5)c4)c3)ccc2c1
-4.86
CCOCCNC1=C(Cl)C(=O)c2ccccc2C1=O
110
COCCn1cc(-c2csc(-c3cn(C)c4ccc(Br)cc34)n2)c2cccnc21
70.8
CCCCCN1C(=O)/C(=c2\sc3n(c2=O)C2C(NN=3)N(CC)C(=O)N2CC)c2ccccc21 (stereo not given)
9.45
C=CC[Se]C(=O)Cc1c(C)n(C(=O)c2ccc(Cl)cc2)c2ccc(OC)cc12
-16.6
O=c1c2cccc3c(N4CCCC4)ccc(c32)c2nc3ccccc3n12
66.1
O=C(NCc1ccc(Cl)cc1Cl)C1CCC(=O)N1c1cccs1 (stereo not given)
92.9
COc1ccc(-c2nc3c(ncc4ccc(=O)[nH]c43)s2)cc1
90.2

## Task // returns reported growth for input Cc1ccc(-c2nc(N3CCCNCC3)c3oc(-c4ccccc4)nc3n2)cc1
## Result -55.3

## Task Query (compound): CCO/C=N/C1=C(C#N)C(c2ccc(Cl)cc2)c2sc3c(F)cccc3c2O1 (stereo not given) ; field requested: growth
## Result 58.4

## Task For N=C(N)c1ccc(-c2ccc(-c3ccc(Cl)c(Cl)c3)s2)nc1 , what is its reported growth?
## Result 36.6

---

System: DU-145 prostate
Test: NCI-60 one-dose screen, 48 h
Settings: 10 µM unless noted
The panel holds about 83,000 compounds, 20% with a hit somewhere; the sample as a whole holds those more often. The source made the active and inactive calls. How the source made its calls: active means growth percent below 10; inactive means the rest.
Parameter call: string, one of active, inactive

Below, 2 compounds whose answers are already recorded.
CC(=O)Oc1ccc(C)cc1C
inactive
COc1ccc(-c2cc(-c3ccc(Cl)cc3)c(C#N)c(=O)n2Cc2ccc(C(=O)Nc3ccccc3N)cc2)cc1
inactive

## Task Could you kindly confirm the outcome this assay logged for N#Cc1ccc2c(c1)C(=O)c1c-2n(CCCN)c(=O)c2cc([N+](=O)[O-])ccc12 ?
## Result active

## Task # fetch the recorded call for COc1cc2c(cc1OC)C(C)N(S(N)(=O)=O)CC2 (stereo not given) here
## Result inactive

## Task Record request — test call for OCCn1cc(-c2nc(-c3c[nH]c4ncccc34)cs2)c2ccccc21
## Result inactive

---

Test system: KM12 colon
Assay: NCI-60 one-dose screen, 48 h (100 = growth as untreated, 0 = no growth, -100 = all killed)
Conditions: 10 µM unless noted
Description: Growth inhibition of the KM12 human tumor cell line is measured as a screen for anti-cancer activity. Cells are grown in 96 well plates and exposed to the test compound for 48 hours. Compounds are tested at a single concentration, which is 10^-5 M for most compounds. The reported endpoint is percent growth (GI% or GIPRCNT), where numbers from 0 - 100% represent growth inhibition, and numbers from -100% - 0 represent cell death. For example, a value of 40 represents 60% growth inhibition. […]
The panel holds about 83,000 compounds, 20% with a hit somewhere; the sample as a whole holds those more often.
QUANTITY_NAME: growth (%)
Give just the number in %; leave the unit off.

COc1ccc(C2=C(Nc3ccc(C(=O)Nc4ccccc4)cc3)C(=O)N(C)C2=O)cc1
91.6
COc1ccc(/C=C(\C#N)n2nnc3cc(F)c(F)cc32)cc1
34
CC1=NC2=Nn3c(c4cnn(-c5ccccc5)c4n/c3=N\N)NN2C(c2ccccc2)=C1
92.9
S=c1sc2c(Cl)nc(-c3cccnc3)nc2n1-c1ccccc1
46.3
NNc1nc(-c2cccnc2)nc2c1sc(=S)n2-c1ccccc1
102
O=C1C(=O)N(Cc2ccc(-c3ccccc3)cc2)c2ccc(OC(F)(F)F)cc21
12.5
Cc1ccc(NC(=O)c2sc3nc(C)c(Br)c(C)c3c2N)cc1
74.8
O=C(Nc1cccc(-c2ccc(N3CCOCC3)nn2)c1)Nc1cccc(C(F)(F)F)c1
55.5

## Task growth for Cc1ccc(-c2nc(N3CCCNCC3)c3oc(-c4ccccc4)nc3n2)cc1 ?
## Result -81.5

## Task Given the molecule COc1ccc2c(c1)c(-c1nc(-c3c[nH]c4ccncc34)cs1)cn2C , what is its reported growth?
## Result -88.9

## Task Look at this molecule and give its reported growth. O=c1scc(-c2ccc(C(F)(F)F)cc2)s1
## Result 109

Every entry's value here was drawn from PubChem BioAssay (NCI).
